Value source: patent US11584763B2

# assay.target: PIP4K 2A (Homo sapiens, UniProt P48426)
# method.description: Kinase Assay PIP4K2 A (PIP4KtypeIIA inhibition assay)
# Format: biochemical
# Design: made in house; host or cells: E. coli
# condition: compounds listed under IC50 bin headings
# Sequence (P48426 whole entry, species assumed): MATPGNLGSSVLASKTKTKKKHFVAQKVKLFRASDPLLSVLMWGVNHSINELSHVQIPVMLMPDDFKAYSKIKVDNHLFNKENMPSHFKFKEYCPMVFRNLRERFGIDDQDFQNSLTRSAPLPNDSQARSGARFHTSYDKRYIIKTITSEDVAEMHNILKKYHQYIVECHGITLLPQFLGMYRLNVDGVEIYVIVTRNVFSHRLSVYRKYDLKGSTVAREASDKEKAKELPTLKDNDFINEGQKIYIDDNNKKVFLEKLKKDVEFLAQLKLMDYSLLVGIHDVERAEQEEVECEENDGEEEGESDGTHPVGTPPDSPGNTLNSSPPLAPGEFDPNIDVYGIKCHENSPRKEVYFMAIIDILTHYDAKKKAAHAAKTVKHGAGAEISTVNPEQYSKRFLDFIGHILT
pIC50: −log10 of the molar value.
observable: pIC50

Examples with answers:
Cc1cncc(Nc2cc3c(cn2)-c2ccc(N4CCCC4=O)cc2OC3C)c1 (centres unmarked) = ≥ 9.00
COCCC(=O)N1CCN(c2cncc(Nc3cc4c(cn3)-c3ccc(N5CCCC5=O)cc3OC4(C)C)c2)CC1 = ≥ 9.00
CC1Oc2cc(N3CCCC3=O)ccc2-c2cnc(Nc3cncc(N4CCOCC4=O)c3)cc21 (centres unmarked) = 8.00 to 9.00
CC1Oc2cc(N3CCCC3=O)c(F)cc2-c2cnc(Nc3cccnc3)cc21 (centres unmarked) = 8.00 to 9.00
CC1Oc2cc(N3CCCC3=O)ccc2-c2cnc(Nc3cncc(N(C4CC4)S(C)(=O)=O)c3)cc21 (centres unmarked) = ≥ 9.00

Prompt: For the molecule shown here, CC1Oc2cc(C(=O)N(C)C)ccc2-c2cnc(Nc3cnc4c(c3)N(S(=O)(=O)C3CC3)CCO4)cc21 (centres unmarked) , give the reported pIC50.
Completion: ≥ 9.00

Prompt: For the molecule shown here, CC1Oc2cc(N3CCCC3=O)ccc2-c2cnc(Nc3cncc(N4CCOCC4)c3)cc21 (centres unmarked) , give the reported pIC50.
Completion: 8.00 to 9.00

Prompt: For the molecule shown here, C[C@@H]1Oc2cc(N3CCCC3=O)ccc2-c2cnc(Nc3cnc4c(c3)N3C(=O)CC[C@H]3CO4)cc21 , give the reported pIC50.
Completion: ≥ 9.00

====

Property: IC50; scope: individual compounds
# assay.target: PIP4K 2A (Homo sapiens, UniProt P48426)
# method.description: ADP-glo kinase assay PIP4K 2A
# Assay type: biochemical
# Design: 4 nM PIP4K2A (full length protein, SignalChem); purchased SignalChem
# condition: compounds listed under IC50 bin headings
# Sequence (P48426 whole entry): as the sequence (P48426 whole entry, species assumed) above

CC1c2cc(Nc3cccnc3)ncc2-c2ccc(C(=O)N(C)C)cc2N1C (stereo not shown) = 0.01 to 0.1 µM
CC1Oc2cc(N3CCCC3=O)ccc2-c2cnc(Nc3cncc(NC(=O)NCc4ccccc4)c3)cc21 (stereo not shown) = 0.001 to 0.01 µM
CC1Oc2cc(N3CCCC3=O)ccc2-c2cnc(Nc3cnc4c(c3)N3C(=O)[C@](C)(O)C[C@H]3CO4)cc21 (stereo partly shown) = 0.01 to 0.1 µM
COC(=O)N1CCOc2ncc(Nc3cc4c(cn3)-c3ccc(N5CCCC5=O)cc3OC4)cc21 = ≤ 0.001 µM
CC1Oc2cc(N3CCCC3=O)ccc2-c2cnc(Nc3cnc4c(c3)N(C(=O)C(C)(C)O)CCO4)cc21 (stereo not shown) = ≤ 0.001 µM

Prompt: For the compound shown here, CC1Oc2cc(N3CCCC3=O)ccc2-c2cnc(Nc3cncc(NC(=O)CCC(=O)O)c3)cc21 (stereo not shown) , give the reported IC50.
Completion: 0.001 to 0.01 µM

Prompt: For the compound shown here, CC1Oc2cc(N3CCCC3=O)ccc2-c2cnc(Nc3cncc(NC(=O)c4ccc(F)cc4)c3)cc21 (stereo not shown) , give the reported IC50.
Completion: 0.01 to 0.1 µM

====

# assay.target: PIP4K 2A (Homo sapiens, UniProt P48426)
# method.description: ADP-glo kinase assay PIP4K 2A
# Assay type: biochemical
# Set-up: 4 nM PIP4K2A (full length protein, SignalChem); purchased SignalChem
# condition: compounds listed under IC50 bin headings
pIC50: −log10 of the molar value.
observable: pIC50

Examples with answers:
CC1(C)Oc2cc(N3CCCC3=O)ccc2-c2cnc(Nc3cnc4c(c3)OCCO4)cc21 = 8.00 to 9.00
CC(Cc1ccccc1)C(=O)Nc1cncc(Nc2cc3c(cn2)-c2ccc(N4CCCC4=O)cc2OC3C)c1 (stereo not drawn) = 8.00 to 9.00

Prompt: For the compound shown here, O=C1CCCN1c1ccc2c(c1)OCc1cc(Nc3cnc4c(c3)N3C(=O)CC[C@@H]3CO4)ncc1-2 , give the reported pIC50.
Completion: 8.00 to 9.00

Prompt: For the compound shown here, CS(=O)(=O)N1CCOc2ncc(Nc3cc4c(cn3)-c3ccc(N5CCCC5=O)cc3OC4)cc21 , give the reported pIC50.
Completion: ≥ 9.00

====

# assay.target: PIP4K 2A (Homo sapiens, UniProt P48426)
# method.description: ADP-glo kinase assay PIP4K 2A
# Format: biochemical
# Parameters: 4 nM PIP4K2A (full length protein, SignalChem); purchased SignalChem
# condition: compounds listed under IC50 bin headings
# Protocol: Dilution series of the compounds were prepared in DMSO at 100 times the final assay concentration (n1=n0/3 in 10 points). […] Then 3 μL of a solution containing 60 μM ATP (Promega) in assay buffer was added to the wells containing compound and enzyme and mixing was performed by pipetting several times. […] The reaction was incubated at room temperature for 40 minutes before the luminescence was measured in a in a Victor 3V 1420 multilabel counter (Perkin Elmer). […]
Property: IC50; scope: individual compounds

Examples with answers:
CC1Oc2cc(N3CCCC3=O)ccc2-c2cnc(Nc3cncc(NC(=O)c4cccc5c4COB5O)c3)cc21 (stereo not drawn) [Example 118] = 0.001 to 0.01 µM
COc1ncc(Nc2cc3c(cn2)-c2ccc(N4CCCC4=O)cc2OC3C)cc1NS(C)(=O)=O (stereo not drawn) [Example 88] = 0.001 to 0.01 µM
COC(=O)N1CCOc2ncc(Nc3cc4c(cn3)-c3ccc(N5CCCC5=O)cc3OC4C)cc21 (stereo not drawn) [Example 83] = ≤ 0.001 µM

Prompt: For the compound shown here, CC1Oc2cc(N3CCCC3=O)ccc2-c2cnc(Nc3cncc(NC(=O)c4cc5ccccc5[nH]4)c3)cc21 (stereo not drawn) [Example 141] , give the reported IC50.
Completion: 0.001 to 0.01 µM

Prompt: For the compound shown here, COc1ncc(Nc2cc3c(cn2)-c2ccc(N4CCCC4=O)cc2OC3(C)C)cc1NC(C)=O [Example 191] , give the reported IC50.
Completion: 0.1 to 1 µM

Prompt: For the compound shown here, CC1Oc2cc(N3CCCC3=O)ccc2-c2cnc(Nc3cncc(NC(=O)c4ccnnc4)c3)cc21 (stereo not drawn) [Example 125] , give the reported IC50.
Completion: 0.001 to 0.01 µM

Prompt: For the compound shown here, O=C1CCCN1c1cc2c(cc1F)-c1cnc(Nc3cnc4c(c3)OCCO4)cc1CO2 [Example 165] , give the reported IC50.
Completion: 0.01 to 0.1 µM

Prompt: For the compound shown here, CC1Oc2cc(N3CCCC3=O)ccc2-c2cnc(Nc3cncc(N4CCN(C)C4=O)c3)cc21 (stereo not drawn) [Example 53] , give the reported IC50.
Completion: 0.001 to 0.01 µM

Prompt: For the compound shown here, CC1Oc2cc(N3CCCC3=O)ccc2-c2cnc(Nc3cncc(NC(=O)Cc4ccccc4)c3)cc21 (stereo not drawn) [Example 107] , give the reported IC50.
Completion: 0.001 to 0.01 µM

Prompt: For the compound shown here, CC1Oc2cc(N3CCCC3=O)ccc2-c2cnc(Nc3cncc(NC(=O)c4cccc5nccn45)c3)cc21 (stereo not drawn) [Example 146] , give the reported IC50.
Completion: ≤ 0.001 µM

Prompt: For the compound shown here, Cc1cncc(Nc2cc3c(cn2)-c2ccc(N4CCCC4=O)cc2OC3C)c1 (stereo not drawn) [Example 97] , give the reported IC50.
Completion: 0.001 to 0.01 µM

Prompt: For the compound shown here, CN1CCN(c2cncc(Nc3cc4c(cn3)-c3ccc(N5CCCC5=O)cc3OC4(C)C)c2)S1(=O)=O [Example 186] , give the reported IC50.
Completion: 0.01 to 0.1 µM

Prompt: For the compound shown here, CC1(C)Oc2cc(N3CCCC3=O)c(F)cc2-c2cnc(Nc3cnc4c(c3)N3C(=O)CC[C@H]3CO4)nc21 [Example 190] , give the reported IC50.
Completion: ≤ 0.001 µM

Prompt: For the compound shown here, CC1Oc2cc(N3CCCC3=O)ccc2-c2cnc(Nc3cncc(NC(=O)c4cc5ccccn5n4)c3)cc21 (stereo not drawn) [Example 140] , give the reported IC50.
Completion: 0.001 to 0.01 µM

Prompt: For the compound shown here, CC1Oc2cc(N3CCCC3=O)ccc2-c2cnc(Nc3cnc4c(c3)N(C(=O)C3(O)CC3)CCO4)cc21 (stereo not drawn) [Example 58] , give the reported IC50.
Completion: ≤ 0.001 µM

====

Property: pIC50; scope: individual molecules
# assay.target: PIP4K 2A (Homo sapiens)
# method.description: Kinase Assay PIP4K2 A (PIP4KtypeIIA inhibition assay)
# Assay type: biochemical
# Design: made in house; host or cells: E. coli
# condition: compounds listed under IC50 bin headings
pIC50: −log10 of the molar value.

Examples with answers:
CC1Oc2cc(N3CCCC3=O)ccc2-c2cnc(Nc3cnc4c(c3)N(S(=O)(=O)C3CC3)CCO4)cc21 (stereo not shown) = ≥ 9.00
CC1Oc2cc(N3CCCC3=O)ccc2-c2cnc(Nc3cncc(C4(C#N)CC4)c3)cc21 (stereo not shown) = ≥ 9.00
CC1Oc2cc(N3CCCC3=O)ccc2-c2cnc(Nc3cncc(Nc4cccnn4)c3)cc21 (stereo not shown) = ≥ 9.00

Next molecule, please.
Prompt: For the molecule shown here, COc1ncc(Nc2cc3c(cn2)-c2ccc(N4CCCC4=O)cc2OC3C)cc1N(C)S(C)(=O)=O (stereo not shown) , give the reported pIC50.
Completion: 8.00 to 9.00
